Below is a list of entries, each paired with its recorded residual activity value.
- assay-system: DCLK2 (human) (UniProt Q8N568)
- Sequence (Q8N568 whole entry, looked up): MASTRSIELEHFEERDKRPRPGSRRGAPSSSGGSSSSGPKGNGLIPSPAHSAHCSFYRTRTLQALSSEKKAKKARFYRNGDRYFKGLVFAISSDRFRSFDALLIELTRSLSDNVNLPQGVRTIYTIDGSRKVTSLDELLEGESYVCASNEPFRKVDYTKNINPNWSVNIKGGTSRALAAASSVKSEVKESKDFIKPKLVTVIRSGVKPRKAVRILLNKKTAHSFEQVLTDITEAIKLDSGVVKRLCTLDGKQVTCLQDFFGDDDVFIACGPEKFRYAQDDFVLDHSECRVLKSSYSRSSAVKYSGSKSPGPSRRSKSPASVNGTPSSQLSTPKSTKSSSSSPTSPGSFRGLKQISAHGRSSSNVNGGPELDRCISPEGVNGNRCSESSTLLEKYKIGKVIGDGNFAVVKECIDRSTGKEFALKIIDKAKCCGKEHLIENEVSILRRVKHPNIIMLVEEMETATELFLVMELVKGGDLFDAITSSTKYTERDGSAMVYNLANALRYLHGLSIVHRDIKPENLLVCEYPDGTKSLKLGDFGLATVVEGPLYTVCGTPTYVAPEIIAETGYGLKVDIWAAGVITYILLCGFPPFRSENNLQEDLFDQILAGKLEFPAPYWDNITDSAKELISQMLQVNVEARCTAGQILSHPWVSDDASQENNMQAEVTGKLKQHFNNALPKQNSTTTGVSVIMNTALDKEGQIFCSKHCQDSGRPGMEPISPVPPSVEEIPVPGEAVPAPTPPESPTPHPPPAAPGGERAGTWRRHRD
- test-protocol: radiometric filter-binding kinase assay, Kinase HotSpot
- cond: compound 0.5 µM; ATP 10 µM
quantity-name: residual activity (%)

INSERT INTO results (smiles_entry, assay_system, quantity_name, result_unit, recorded_measurement) VALUES
  ('Clc1ccc(Nc2nnc(Cc3ccncc3)c3ccccc23)cc1', 'DCLK2 (human) (UniProt Q8N568)', 'residual activity', '%', 100),
  ('CCCNC(=O)Nc1ccc(Oc2ncnc3cc(OC)c(OC)cc23)cc1Cl', 'DCLK2 (human) (UniProt Q8N568)', 'residual activity', '%', 96.4),
  ('COc1cc2nccc(Oc3ccc(NC(=S)NC(=O)c4ccccc4C)cc3)c2cc1OC', 'DCLK2 (human) (UniProt Q8N568)', 'residual activity', '%', 91.5),
  ('Nc1n[nH]c2nnc(-c3c(-c4ccccc4)nn4ccccc34)cc12', 'DCLK2 (human) (UniProt Q8N568)', 'residual activity', '%', 100),
  ('CC(C)[C@H](CO)Nc1nc(Nc2cccc(Cl)c2)c2ncn(C(C)C)c2n1', 'DCLK2 (human) (UniProt Q8N568)', 'residual activity', '%', 100),
  ('Oc1ccc(-c2nc(-c3ccc(F)cc3)c(-c3ccncc3)[nH]2)cc1', 'DCLK2 (human) (UniProt Q8N568)', 'residual activity', '%', 102),
  ('CC(C)(C)c1nc2c3ccc(F)cc3c3c(=O)[nH]ccc3c2[nH]1', 'DCLK2 (human) (UniProt Q8N568)', 'residual activity', '%', 65.8),
  ('NC(=O)c1ccc(N(C(N)=O)c2c(F)cccc2F)nc1-c1ccc(F)cc1F', 'DCLK2 (human) (UniProt Q8N568)', 'residual activity', '%', 97.5),
  ('C#Cc1cccc(Nc2ncnc3cc(OCCOC)c(OCCOC)cc23)c1', 'DCLK2 (human) (UniProt Q8N568)', 'residual activity', '%', 102),
  ('O=c1cc(-c2cccc3c2Sc2ccccc2S3)oc(N2CCOCC2)c1', 'DCLK2 (human) (UniProt Q8N568)', 'residual activity', '%', 106),
  ('O=c1cc(N2CCNCC2)oc2c(-c3ccccc3)cccc12', 'DCLK2 (human) (UniProt Q8N568)', 'residual activity', '%', 116);
